These entries and their values trace back to patent US6914045B2.

- Tested on: Staphylococcus sp.
- Test description: in vitro antibacterial evaluation, MIC by broth dilution
- Type: cell-based
- Recorded conditions: strain GC 1131; broth dilution, 18 hours at 35° C.
Result type: MIC Staphylococcus aureus (GC 1131) (µg/mL)
Answer in µg/mL, number only, no unit symbol.

Entry under test: CC(c1ccccc1)C1NC(=O)CNC(=O)C(CO)NC(=O)C(C(O)C2CNC(=N)N2C2OC(CO)C(O)C(O)C2O)NC(=O)C(C(O)C2CNC(=N)N2)NC(=O)C(Cc2ccc(OC3OC(CO)C(OC4OC(CO)C(O)C5OC6(CCCCCCCCCCCC6)OC45)C(O)C3O)cc2)NC1=O (stereo not shown) [Example 210a] . Its MIC Staphylococcus aureus (GC 1131) was 4
